Give measured IC50 for each item. Keep answers brief.
tested_target: CDK2/cyclin E (Homo sapiens, UniProt P24941)
Construct: made in house; host or cells: Sf9 insect cells, baculovirus co-infection
method_description: CDK2/cyclin E kinase inhibition assay
Format: biochemical
particulars: kinase inhibitory activity, 15 μM ATP, histone substrate
Kindly provide the numeric value in µM only, without the unit symbol.

Problem: Quick one: IC50 for CCC(CC)n1cnc2c(NCc3cccc(OC)c3O)nc(NC3CCCCC3N)nc21 (stereo not shown) ?
Result: 0.06

Problem: What about CCC(CO)Nc1nc(NCc2ccc(O)cc2O)c2ncn(C(C)C)c2n1 (stereo not shown) ?
Result: 0.08

Problem: What about Cn1cnc2c(NCc3cc(Cl)ccc3O)nc(NC3CCC(N)CC3)nc21 (stereo not shown) ?
Result: 0.27

Problem: What about CCC(CO)Nc1nc(NCc2cc(Cl)ccc2O)c2ncn(CC)c2n1 (stereo not shown) ?
Result: 0.13

Problem: What about Cn1cnc2c(NCc3cc(Cl)ccc3O)nc(NC3CCCCC3N)nc21 (stereo not shown) ?
Result: 0.29

Problem: What about CC(C)n1cnc2c(NCc3cc(O)ccc3O)nc(NC3CCCCC3N)nc21 (stereo not shown) ?
Result: 0.08

Problem: What about COc1cccc(CNc2nc(NC3CCCCC3N)nc3c2ncn3C)c1O (stereo not shown) ?
Result: 0.26

====

tested_target: CDK9/cyclin T (Homo sapiens)
Construct: made in house; host or cells: Sf9 insect cells, baculovirus co-infection
Sequence (P50750 whole entry, species assumed): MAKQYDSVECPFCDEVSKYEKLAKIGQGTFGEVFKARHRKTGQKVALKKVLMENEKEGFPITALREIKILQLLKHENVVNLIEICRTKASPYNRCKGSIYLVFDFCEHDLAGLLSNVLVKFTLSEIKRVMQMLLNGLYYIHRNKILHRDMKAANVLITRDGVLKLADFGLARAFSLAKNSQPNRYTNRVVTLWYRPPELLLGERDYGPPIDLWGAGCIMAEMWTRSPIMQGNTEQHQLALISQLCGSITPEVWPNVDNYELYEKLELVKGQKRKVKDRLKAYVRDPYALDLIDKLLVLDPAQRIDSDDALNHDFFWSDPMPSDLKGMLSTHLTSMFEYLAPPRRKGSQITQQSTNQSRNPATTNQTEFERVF
Sequence (O60563 whole entry partner, species assumed): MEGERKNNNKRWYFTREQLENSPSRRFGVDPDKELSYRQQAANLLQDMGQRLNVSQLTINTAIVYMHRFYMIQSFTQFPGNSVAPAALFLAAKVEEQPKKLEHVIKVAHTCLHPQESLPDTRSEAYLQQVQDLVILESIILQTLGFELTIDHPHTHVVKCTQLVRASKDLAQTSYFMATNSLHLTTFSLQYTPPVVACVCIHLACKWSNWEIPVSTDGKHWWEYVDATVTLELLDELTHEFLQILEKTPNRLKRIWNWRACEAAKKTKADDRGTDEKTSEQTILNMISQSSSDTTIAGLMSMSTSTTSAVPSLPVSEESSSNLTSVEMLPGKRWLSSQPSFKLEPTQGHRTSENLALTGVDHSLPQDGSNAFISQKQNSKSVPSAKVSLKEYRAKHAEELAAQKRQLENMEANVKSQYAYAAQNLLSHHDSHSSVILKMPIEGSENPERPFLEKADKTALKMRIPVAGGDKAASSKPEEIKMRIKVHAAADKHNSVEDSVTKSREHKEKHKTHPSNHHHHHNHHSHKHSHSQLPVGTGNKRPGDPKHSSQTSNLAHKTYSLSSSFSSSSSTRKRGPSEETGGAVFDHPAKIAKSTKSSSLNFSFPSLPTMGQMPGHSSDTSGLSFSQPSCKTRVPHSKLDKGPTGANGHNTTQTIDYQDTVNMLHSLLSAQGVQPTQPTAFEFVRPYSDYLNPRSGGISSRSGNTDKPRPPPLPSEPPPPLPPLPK
method_description: CDK9/cyclin T kinase inhibition assay
Type: biochemical
particulars: kinase inhibitory activity, 15 μM ATP, (YSPTSPS)3 peptide substrate
observable: IC50
Returns: string containing the numeric result and its unit.

Problem: Quick one: IC50 for CC(C)n1cnc2c(NCc3cc(Cl)ccc3O)nc(NC3CCC(N)CC3)nc21 (stereo not drawn) ?
Result: 0.01 µM

Problem: What about CC(C)n1cnc2c(NCc3cc(F)ccc3O)nc(NC3CCCCC3N)nc21 (stereo not drawn) ?
Result: 0.02 µM

Problem: What about CCC(CC)n1cnc2c(NCc3cc(F)ccc3O)nc(NC3CCC(N)CC3)nc21 (stereo not drawn) ?
Result: 0.01 µM
